System: NA of Day 0 wild-type isolate (A/Bethesda/NIH12-0/2008) (Influenza A virus)
Type: biochemical, influenza A/H3N2 virus
Test settings: read-out: NA-inhibition Assay IC50 (95% CI)
Reported endpoint: pIC50
pIC50 here: minus log base 10 of the concentration, concentration in moles per litre.

q: // fetch NA of Day 0 wild-type isolate (A/Bethesda/NIH12-0/2008) (Influenza A virus) pIC50 for CC(=O)N[C@H]1[C@H]([C@H](O)[C@H](O)CO)OC(C(=O)O)=C[C@@H]1N=C(N)N [Zanamivir, zanamivir]
a: 8.40

---

Would you mind telling me the reported IC50 of each entry?
System: Day 8 isolate (deletion in NA of AA 245–248)
Assay type: cell-based, influenza A/H3N2 virus
Test settings: read-out: Plaque Reduction Assay IC50 (95% CI)
Numbers only here, please. The scale is nM.

q: What does the data say about its IC50? Entry: `CC(=O)N[C@H]1[C@H]([C@H](O)[C@H](O)CO)OC(C(=O)O)=C[C@@H]1N=C(N)N`
a: 224

q: What does the data say about its IC50? Entry: `CCOC(=O)C1=C[C@@H](OC(CC)CC)[C@H](NC(C)=O)[C@@H](N)C1`
a: 49.7

---

Would you mind telling me the reported EC50 of each entry?
Test system: Day 0 wild-type isolate (A/Bethesda/NIH12-0/2008)
Assay protocol: microbe, parasite or virus in culture
Assay type: cell-based, influenza A/H3N2 virus
Test settings: read-out: High Throughput Assay EC50 (95% CI)
Numbers only here, please. The scale is nM.

q: What does the data say about its EC50? Entry: `CC(=O)N[C@H]1[C@H]([C@H](O)[C@H](O)CO)OC(C(=O)O)=C[C@@H]1N=C(N)N`
a: 18.9

q: What does the data say about its EC50? Entry: `CCOC(=O)C1=C[C@@H](OC(CC)CC)[C@H](NC(C)=O)[C@@H](N)C1`
a: 0.21

---

System: NA of Day 8 isolate (deletion in NA of AA 245–248) (Influenza A virus, UniProt D3XBZ2, DEL245-248)
Assay protocol: biochemical
Reported endpoint: IC50 (nM)
Numbers only here, please. The scale is nM.

q: What does the data say about its IC50? Entry: CC(=O)N[C@H]1[C@H]([C@H](O)[C@H](O)CO)OC(C(=O)O)=C[C@@H]1N=C(N)N [Zanamivir, zanamivir]
a: 12.7

---

System: Day 0 wild-type isolate (A/Bethesda/NIH12-0/2008)
Assay protocol: microbe, parasite or virus in culture
Assay type: cell-based, influenza A/H3N2 virus
Test settings: Influenza A virus, in Homo sapiens, 0 h, read-out: High Throughput Assay EC50
pEC50: −log10 of the molar value.
Reported endpoint: pEC50

q: What does the data say about its pEC50? Entry: `NC12CC3CC(CC(C3)C1)C2`
a: < 3.70

# credit: paper PMC2851491
